- target_of_assay: GST-PLK3 (Homo sapiens, UniProt Q9H4B4)
- Construct: purchased CarnaBio
- Sequence (Q9H4B4 whole entry): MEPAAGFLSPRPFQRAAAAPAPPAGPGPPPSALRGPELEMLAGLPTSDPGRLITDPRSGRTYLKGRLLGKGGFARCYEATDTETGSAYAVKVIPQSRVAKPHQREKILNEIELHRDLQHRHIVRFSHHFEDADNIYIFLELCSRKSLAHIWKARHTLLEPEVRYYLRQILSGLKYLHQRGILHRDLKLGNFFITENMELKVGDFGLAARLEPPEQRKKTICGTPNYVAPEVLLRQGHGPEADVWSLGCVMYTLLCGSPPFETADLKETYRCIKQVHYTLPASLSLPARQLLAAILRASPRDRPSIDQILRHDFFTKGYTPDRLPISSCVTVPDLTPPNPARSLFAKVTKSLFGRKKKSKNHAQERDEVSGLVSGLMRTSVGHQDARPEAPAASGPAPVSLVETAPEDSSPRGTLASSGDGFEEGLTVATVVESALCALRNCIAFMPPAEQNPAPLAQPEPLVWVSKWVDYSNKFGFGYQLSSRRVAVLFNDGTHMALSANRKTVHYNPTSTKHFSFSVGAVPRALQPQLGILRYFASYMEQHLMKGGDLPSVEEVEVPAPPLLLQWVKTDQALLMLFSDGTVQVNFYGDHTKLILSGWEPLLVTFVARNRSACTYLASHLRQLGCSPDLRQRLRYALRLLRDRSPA
- test_details: PLK TR-FRET peptide assay, PLK3
- Assay type: biochemical
- particulars: PLK TR-FRET peptide assay, GST-PLK3; read-out: Plk3 IC50
pIC50: −log10 of the molar value.
outcome_measure: pIC50

CCC1C(=O)N(C)c2cnc(-n3ccnc3-c3ccc(F)cc3)nc2N1c1cnn(COCC[Si](C)(C)C)c1 (stereo not shown) | 5.00 to 6.00
CCC1C(=O)N(C)c2cnc(-c3cn[nH]c3-c3nccs3)nc2N1c1cnn(CC2CC2)c1 (stereo not shown) | 5.00 to 6.00
CC[C@@H]1C(=O)N(C)c2cnc(-n3ccnc3Br)nc2N1C1CCCC1 | 4.30 to 5.00
CC[C@@H]1C(=O)N(C)c2cnc(-n3cc(C(=O)NC)cn3)nc2N1C1CCCC1 | 4.30 to 5.00
CC[C@@H]1C(=O)N(C)c2cnc(-c3cn(C)nc3-c3nccs3)nc2N1c1cnn(C)c1 | < 4.30
CC[C@@]12COCCN1c1nc(-c3snnc3-c3ccc(F)cn3)ncc1N(C)C2=O | < 4.30

In: Specify pIC50 for `CC[C@@H]1C(=O)N(C)c2cnc(-n3cnc(C(=O)O)c3)nc2N1C1CCCC1` and stop.
Out: > 6.00

In: Specify pIC50 for CC[C@]12COCCN1c1nc(-n3ccnc3-c3ccccc3)ncc1N(C)C2=O (single isomer, unassigned) and stop.
Out: < 4.30

In: Specify pIC50 for `CC[C@]12COCCN1c1nc(-c3snnc3-c3ccccc3)ncc1N(C)C2=O` and stop.
Out: < 4.30

In: Specify pIC50 for `CC[C@@H]1C(=O)N(C)c2cnc(-n3ccnc3-c3ncccn3)nc2N1C1CCC1` and stop.
Out: 4.30 to 5.00

In: Specify pIC50 for `CC[C@@H]1C(=O)N(C)c2cnc(-n3ccnc3-c3cn[nH]c3)nc2N1C1CCCC1` and stop.
Out: > 6.00

In: Specify pIC50 for CCC1C(=O)N(C)c2cnc(-n3ccnc3-c3ccc(F)cc3)nc2N1c1ccc(F)cc1 (stereo not shown) and stop.
Out: 5.00 to 6.00

In: Specify pIC50 for `CC[C@@]12CCCN1c1nc(-n3ccnc3-c3ccncc3)ncc1N(C)C2=O` and stop.
Out: 4.30 to 5.00

In: Specify pIC50 for `CC[C@@H]1C(=O)N(C)c2cnc(-n3cnc(Br)c3)nc2N1C1CCCC1` and stop.
Out: 4.30 to 5.00

In: Specify pIC50 for `CC[C@@H]1C(=O)N(C)c2cnc(-c3cncnc3-c3ccccc3)nc2N1C1CCCC1` and stop.
Out: > 6.00

In: Specify pIC50 for `CC[C@@H]1C(=O)N(C)c2cnc(-n3ccnc3)nc2N1C1CCC1` and stop.
Out: 4.30 to 5.00

---

- target_of_assay: GST-PLK2 (Homo sapiens)
- Construct: purchased CarnaBio
- Sequence (Q9NYY3 whole entry): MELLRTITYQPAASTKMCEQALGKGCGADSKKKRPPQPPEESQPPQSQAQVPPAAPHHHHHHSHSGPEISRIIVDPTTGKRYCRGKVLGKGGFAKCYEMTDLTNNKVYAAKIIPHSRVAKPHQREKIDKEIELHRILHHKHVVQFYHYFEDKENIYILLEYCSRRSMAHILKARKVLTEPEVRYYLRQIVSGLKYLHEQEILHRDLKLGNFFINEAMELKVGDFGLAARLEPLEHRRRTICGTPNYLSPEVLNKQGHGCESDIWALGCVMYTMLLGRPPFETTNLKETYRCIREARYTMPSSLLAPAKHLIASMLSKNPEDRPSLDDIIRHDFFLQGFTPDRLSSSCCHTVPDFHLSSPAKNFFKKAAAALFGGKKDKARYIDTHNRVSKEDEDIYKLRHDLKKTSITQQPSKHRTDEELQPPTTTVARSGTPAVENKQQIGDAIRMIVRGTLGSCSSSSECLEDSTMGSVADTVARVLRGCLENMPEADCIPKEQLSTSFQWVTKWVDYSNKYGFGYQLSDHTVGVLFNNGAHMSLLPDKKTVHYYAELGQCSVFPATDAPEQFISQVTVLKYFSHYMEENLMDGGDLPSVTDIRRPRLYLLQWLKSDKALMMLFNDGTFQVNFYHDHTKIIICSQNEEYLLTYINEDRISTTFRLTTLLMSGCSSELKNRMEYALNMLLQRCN
- test_details: PLK TR-FRET peptide assay, PLK2
- Type: biochemical
- particulars: PLK TR-FRET peptide assay, GST-PLK2; read-out: Plk2 IC50
pIC50: −log10 of the molar value.
outcome_measure: pIC50

Some entries whose results are on file:
CC[C@@]12COCCN1c1nc(-c3cccnc3-c3ccccc3)ncc1N(C)C2=O [Example 403] | > 6.00
CC[C@]12CN(C)CCN1c1nc(-n3ccnc3-c3ccccc3)ncc1N(C)C2=O [Example 375] | 4.30 to 5.00

Here's the next entry for you.
In: Specify pIC50 for CC[C@@]12COCCN1c1nc(-c3snnc3-c3ccccc3)ncc1N(C)C2=O [Example 368] and stop.
Out: > 6.00
